System: HL60 cells
experiment_notes: AsedaSciences SYSTEMETRIC Cell Health Screen (flow cytometry toxicity profiling)
condition_context: HL60, 4 h, 5 nM–100 µM, probability 0–1, n = 2
Listed here are compounds together with their documented CMI: Cell membrane integrity score.
experimental_endpoint: CMI: Cell membrane integrity score

compound: CN(CCOc1ccc(CC2SC(=O)NC2=O)cc1)c1ccccn1 (stereo not drawn) [Rosiglitazone, reference compound]
test_system: HL60 cells
numeric_result: 0.23

compound: COc1ccc(/C=C/C(=O)Nc2ccccc2C(=O)O)cc1OC [Tranilast, reference compound]
test_system: HL60 cells
numeric_result: 0.13

compound: C#Cc1cccc(Nc2ncnc3cc(OC)c(OC)cc23)c1
test_system: HL60 cells
numeric_result: 0.11

compound: C#Cc1cccc(Nc2ncnc3cc4c(cc23)OCO4)c1
test_system: HL60 cells
numeric_result: 0.0038

compound: COc1cc2ncnc(Nc3ccc(F)c(Cl)c3)c2cc1OCCCN1CCOCC1 [Gefitinib, reference compound]
test_system: HL60 cells
numeric_result: 0.99

compound: C#Cc1cccc(Nc2ncnc3ccc(OC)cc23)c1
test_system: HL60 cells
numeric_result: 0.62

compound: [H]/N=C(/N)N/C(=N/[H])NCCc1ccccc1 [Phenformin, reference compound]
test_system: HL60 cells
numeric_result: 0.27

compound: C#Cc1cccc(Nc2ncnc3ccc(Br)cc23)c1
test_system: HL60 cells
numeric_result: 0.0024

compound: CC1(C)NC(=O)N(c2ccc([N+](=O)[O-])c(C(F)(F)F)c2)C1=O [Nilutamide, reference compound]
test_system: HL60 cells
numeric_result: 0.060

compound: C#Cc1cccc(Nc2ncnc3ccccc23)c1
test_system: HL60 cells
numeric_result: 0.99

compound: C#Cc1cccc(Nc2ncnc3ccc(C(F)(F)F)cc23)c1
test_system: HL60 cells
numeric_result: 0.045

compound: C#Cc1cccc(Nc2ccnc3ccc(I)cc23)c1F
test_system: HL60 cells
numeric_result: 0.78

compound: C#Cc1cc(Nc2ncnc3cc(I)ccc23)ccc1Cl
test_system: HL60 cells
numeric_result: 1.00

compound: C#Cc1cccc(Nc2c(C#N)cnc3ccc(I)cc23)c1
test_system: HL60 cells
numeric_result: 1.00

compound: C=C(C)[C@H]1Cc2c(ccc3c2O[C@@H]2COc4cc(OC)c(OC)cc4[C@@H]2C3=O)O1 [Rotenone, reference compound]
test_system: HL60 cells
numeric_result: 0.83

compound: CC(C)(C)c1ccc(C(O)CCCN2CCC(C(O)(c3ccccc3)c3ccccc3)CC2)cc1 (stereo not drawn) [Terfenadine, reference compound]
test_system: HL60 cells
numeric_result: 1.00

compound: CN(C)CCOC(c1ccccc1)c1ccccc1 [Diphenhydramine, reference compound]
test_system: HL60 cells
numeric_result: 0.030

compound: C#Cc1cc(Nc2ncnc3ccc(I)cc23)ccc1Cl
test_system: HL60 cells
numeric_result: 0.54

* * *

Listed here are compounds together with their documented CMI: Cell membrane integrity score.
Tested on: HL60 cells
experiment_notes: AsedaSciences SYSTEMETRIC Cell Health Screen (flow cytometry toxicity profiling)
condition_context: HL60, 4 h, 5 nM–100 µM, probability 0–1, n = 2
experimental_endpoint: CMI: Cell membrane integrity score

compound: CC(C(=O)O)c1cccc(C(=O)c2ccccc2)c1 (stereo not shown) [Ketoprofen, reference compound]
experimental_endpoint: CMI: Cell membrane integrity score
numeric_result: 0.030
//
compound: CN(C)C/C=C/C(=O)Nc1cc2c(Nc3ccc(F)c(Cl)c3)ncnc2cc1O[C@H]1CCOC1 [Afatinib, reference compound]
experimental_endpoint: CMI: Cell membrane integrity score
numeric_result: 1.00
//
compound: Cc1ccc(N(CC2=NCCN2)c2cccc(O)c2)cc1 [Phentolamine, reference compound]
experimental_endpoint: CMI: Cell membrane integrity score
numeric_result: 0.16
//
compound: C#Cc1cccc(Nc2ncnc3cc(C#N)ccc23)c1
experimental_endpoint: CMI: Cell membrane integrity score
numeric_result: 0.052
//
compound: C#Cc1cccc(Nc2ncnc3cc(OC)ccc23)c1
experimental_endpoint: CMI: Cell membrane integrity score
numeric_result: 0.032
//
compound: C#Cc1cc(Nc2ncnc3ccc(I)cc23)ccc1F
experimental_endpoint: CMI: Cell membrane integrity score
numeric_result: 0.31
//
compound: CCC(C)(C)C(=O)O[C@H]1C[C@@H](C)C=C2C=C[C@H](C)[C@H](CC[C@@H]3C[C@@H](O)CC(=O)O3)[C@H]21 [Simvastatin, reference compound]
experimental_endpoint: CMI: Cell membrane integrity score
numeric_result: 0.080
//
compound: C#Cc1cccc(Nc2ncnc3cc4c(cc23)OCCO4)c1
experimental_endpoint: CMI: Cell membrane integrity score
numeric_result: 0.91
//
compound: CC(CN1c2ccccc2Sc2ccccc21)N(C)C (stereo not shown) [Promethazine, reference compound]
experimental_endpoint: CMI: Cell membrane integrity score
numeric_result: 0.98
//
compound: CS(=O)(=O)CCNCc1ccc(-c2ccc3ncnc(Nc4ccc(OCc5cccc(F)c5)c(Cl)c4)c3c2)o1 [Lapatinib, reference compound]
experimental_endpoint: CMI: Cell membrane integrity score
numeric_result: 1.00
//
compound: O=C(O)c1cc(/N=N/c2ccc(S(=O)(=O)Nc3ccccn3)cc2)ccc1O [Sulfasalazine, reference compound]
experimental_endpoint: CMI: Cell membrane integrity score
numeric_result: 0.060
//
compound: C#Cc1cccc(Nc2ncnc3cc(Br)ccc23)c1
experimental_endpoint: CMI: Cell membrane integrity score
numeric_result: 0.41
//
compound: CCc1nn(CCCN2CCN(c3cccc(Cl)c3)CC2)c(=O)n1CCOc1ccccc1 [Nefazodone, reference compound]
experimental_endpoint: CMI: Cell membrane integrity score
numeric_result: 1.00
//
compound: C#Cc1cccc(Nc2c(C#N)cnc3cc(I)ccc23)c1
experimental_endpoint: CMI: Cell membrane integrity score
numeric_result: 1.00
//
compound: CSc1ccc2c(c1)N(CCC1CCCCN1C)c1ccccc1S2 (stereo not shown) [Thioridazine, reference compound]
experimental_endpoint: CMI: Cell membrane integrity score
numeric_result: 1.00
//
compound: C#Cc1cc(Nc2ncnc3cc(OC)c(OC)cc23)ccc1Cl
experimental_endpoint: CMI: Cell membrane integrity score
numeric_result: 0.51
//
compound: C#Cc1cccc(Nc2ncnc3ccc(C#N)cc23)c1
experimental_endpoint: CMI: Cell membrane integrity score
numeric_result: 0.0079
//
compound: CN1CCN(CCCN2c3ccccc3Sc3ccc(Cl)cc32)CC1 [Prochlorperazine, reference compound]
experimental_endpoint: CMI: Cell membrane integrity score
numeric_result: 1.00
//
compound: Cc1ccnc2c1NC(=O)c1cccnc1N2C1CC1 [Nevirapine, reference compound]
experimental_endpoint: CMI: Cell membrane integrity score
numeric_result: 0.050
//
compound: C#Cc1cccc(Nc2ncnc3ccc(Cl)cc23)c1
experimental_endpoint: CMI: Cell membrane integrity score
numeric_result: 0.030
//
compound: O=C(O)CCc1nc(-c2ccccc2)c(-c2ccccc2)o1 [Oxaprozin, reference compound]
experimental_endpoint: CMI: Cell membrane integrity score
numeric_result: 0.090
//
compound: C#Cc1cccc(Nc2ncnc3ccc(S(C)(=O)=O)cc23)c1
experimental_endpoint: CMI: Cell membrane integrity score
numeric_result: 0.0057
//
compound: O=C1CC2(CCCC2)CC(=O)N1CCCCN1CCN(c2ncccn2)CC1 [Buspirone, reference compound]
experimental_endpoint: CMI: Cell membrane integrity score
numeric_result: 0.040
//
compound: C#Cc1cccc(Nc2ccnc3cc(I)ccc23)c1F
experimental_endpoint: CMI: Cell membrane integrity score
numeric_result: 0.30
//
compound: C#Cc1cccc(Nc2ncnc3cc(I)ccc23)c1
experimental_endpoint: CMI: Cell membrane integrity score
numeric_result: 1.00
//
compound: CC(C)(C(=O)O)c1ccc(C(O)CCCN2CCC(C(O)(c3ccccc3)c3ccccc3)CC2)cc1 (stereo not shown) [Fexofenadine, reference compound]
experimental_endpoint: CMI: Cell membrane integrity score
numeric_result: 0.040
//
compound: CC(c1cc2ccccc2s1)N(O)C(N)=O (stereo not shown) [Zileuton, reference compound]
experimental_endpoint: CMI: Cell membrane integrity score
numeric_result: 0.010
//
compound: C#Cc1cccc(Nc2ncnc3ccc(F)cc23)c1
experimental_endpoint: CMI: Cell membrane integrity score
numeric_result: 0.091
//
compound: C#Cc1cc(Nc2ncnc3cc(OC)c(OC)cc23)ccc1F
experimental_endpoint: CMI: Cell membrane integrity score
numeric_result: 0.40
//
compound: Cc1ccc(-c2cc(C(F)(F)F)nn2-c2ccc(S(N)(=O)=O)cc2)cc1 [Celecoxib, reference compound]
experimental_endpoint: CMI: Cell membrane integrity score
numeric_result: 0.94
//
compound: Cc1cn([C@@H]2C[C@@H](O)[C@H](CO)O2)c(=O)[nH]c1=O [Telbivudine, reference compound]
experimental_endpoint: CMI: Cell membrane integrity score
numeric_result: 0.040
//
compound: NC(=O)c1ncn([C@@H]2O[C@H](CO)[C@@H](O)[C@H]2O)n1 [Ribavirin, reference compound]
experimental_endpoint: CMI: Cell membrane integrity score
numeric_result: 0.070
//
compound: C#Cc1cc(Nc2ncnc3cc(I)ccc23)ccc1F
experimental_endpoint: CMI: Cell membrane integrity score
numeric_result: 0.26
//
compound: C#Cc1cccc(Nc2ncnc3cc(F)ccc23)c1
experimental_endpoint: CMI: Cell membrane integrity score
numeric_result: 0.045
